These measurements were taken from patent US20260124214A1.

Human Polθ polymerase domain (aa1820-2590) (Homo sapiens, UniProt O75417) measurements of pKi, listed per entry.
Sequence (O75417 1820-2590): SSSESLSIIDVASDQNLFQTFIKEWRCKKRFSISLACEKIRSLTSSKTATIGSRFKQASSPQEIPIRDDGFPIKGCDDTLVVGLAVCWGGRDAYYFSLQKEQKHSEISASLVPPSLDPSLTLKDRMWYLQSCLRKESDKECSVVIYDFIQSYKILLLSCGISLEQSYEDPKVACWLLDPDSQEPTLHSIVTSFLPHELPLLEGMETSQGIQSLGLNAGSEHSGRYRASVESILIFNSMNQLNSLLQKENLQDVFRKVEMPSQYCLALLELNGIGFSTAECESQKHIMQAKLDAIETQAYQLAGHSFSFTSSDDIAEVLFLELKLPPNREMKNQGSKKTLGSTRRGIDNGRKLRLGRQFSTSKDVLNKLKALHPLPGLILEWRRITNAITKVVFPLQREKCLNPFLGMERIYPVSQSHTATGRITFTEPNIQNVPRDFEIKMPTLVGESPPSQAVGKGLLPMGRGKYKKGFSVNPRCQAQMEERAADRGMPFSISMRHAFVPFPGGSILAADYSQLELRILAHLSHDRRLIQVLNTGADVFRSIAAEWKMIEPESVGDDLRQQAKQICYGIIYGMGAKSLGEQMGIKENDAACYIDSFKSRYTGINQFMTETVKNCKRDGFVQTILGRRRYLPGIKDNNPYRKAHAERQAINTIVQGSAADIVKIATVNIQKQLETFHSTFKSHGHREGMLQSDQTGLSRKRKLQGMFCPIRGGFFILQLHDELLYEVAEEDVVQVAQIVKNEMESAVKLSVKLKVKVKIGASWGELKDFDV
pKi field: float, defined as -log10 of concentration (mol/L).

The measured pKi associated with Cc1cc(C(F)(F)F)cc(N2C(=O)C[C@@H]3CN(CC(O)CN(C)C)c4c(Cl)cccc4N(C)C(=O)[C@H]32)n1 (single isomer, unassigned) [Example 132b] reads 8.21

What the record says about Cc1cc(C(F)(F)F)cc(N2C(=O)C[C@@H]3CN(C[C@@H](O)CN4CCOCC4)c4c(Cl)cccc4N(C)C(=O)[C@H]32)n1 (racemic) [Example 133a] : pKi is 8.83

Short answer for Cc1cc(C(F)(F)F)cc(N2C(=O)C[C@@H]3CN(C[C@H]4COCCN4)c4c(F)cccc4N(C)C(=O)[C@H]32)n1 (racemic) [Example 106b] : pKi was 7.55

// recorded pKi for Cc1cc(C(F)(F)F)cc(N2C(=O)C[C@@H]3CN(CCN4CCC(F)(F)C4)c4c(Cl)cccc4N(C)C(=O)[C@H]32)n1 : 8.83

Query Cc1cc(C(F)(F)F)cc(N2C(=O)C[C@@H]3CN(Cc4ccc([C@@H]5CCCN5C)cc4)c4c(F)cccc4N(C)C(=O)[C@H]32)n1 (racemic) [Example 125b] yields pKi of 8.61

response.value for Cc1cc(C(F)(F)F)cc(N2C(=O)C[C@@H]3CN(c4ccccn4)c4c(Cl)cccc4N(C)C(=O)[C@H]32)n1 (field: pKi) = 7.52
